experiment: Cytotoxicity to M21 melanoma cells; format: cell-based; settings: human, read-out: M21 (melanoma) LD50
Non-standard residues stand in square brackets, D forms with d. Residues, ends and D or L forms follow the SMILES beside them.
result_type: CC50

Request: Which CC50 reading was recorded for the molecule CC(C)C[C@@H]1NC(=O)[C@@H](Cc2c[nH]c3ccccc23)NC(=O)[C@H](CCCNC(=N)N)NC(=O)[C@@H](CCC(N)=O)NC(=O)[C@H](CCCCN)NC(=O)[C@@H](Cc2c[nH]c3ccccc23)NC(=O)[C@H](CC(C)C)NC(=O)[C@@H](Cc2c[nH]c3ccccc23)NC1=O [SEQ ID NO:9] (cyclo(K[dQ]R[dW]L[dW]L[dW])) ?
Response: > 75 µg/mL

----------
test system: murine red blood cells; test: Red blood cell hemolysis; assay type: cell-based, mouse; conditions: red cells of murine
Non-standard residues stand in square brackets, D forms with d. Residues, ends and D or L forms follow the SMILES beside them.
result_type: Hemolysis HD50 (µg/mL)
Just the number please, in µg/mL, no unit attached.

compound: CC(C)C[C@@H]1NC(=O)[C@@H](Cc2c[nH]c3ccccc23)NC(=O)[C@H](CCCCN)NC(=O)[C@@H](CCCNC(=N)N)NC(=O)[C@H](CCCCN)NC(=O)[C@@H](Cc2c[nH]c3ccccc23)NC(=O)[C@H](CC(C)C)NC(=O)[C@@H](Cc2c[nH]cn2)NC1=O [SEQ ID NO:101, [KRKWLHLW]] (cyclo(K[dR]K[dW]L[dH]L[dW]))
experimental_target: murine red blood cells
measure_unit: µg/mL
Hemolysis HD50: 100
//
compound: CC(C)C[C@@H](NC(=O)[C@H](Cc1c[nH]c2ccccc12)NC(=O)[C@@H](CC(C)C)NC(=O)[C@H](Cc1c[nH]c2ccccc12)NC(=O)[C@@H](CCCCN)NC(=O)[C@H](CCCNC(=N)N)NC(=O)[C@H](N)CCCNC(=N)N)C(=O)N[C@@H](Cc1c[nH]c2ccccc12)C(N)=O [SEQ ID NO:135, H-RRKWLWLW-NH2] (H-[dR]R[dK]W[dL]W[dL]W-NH2)
experimental_target: murine red blood cells
measure_unit: µg/mL
Hemolysis HD50: 100

# next compound below
Request: What Hemolysis HD50 value was documented for this compound, CC(C)C[C@H]1NC(=O)[C@H](Cc2c[nH]c3ccccc23)NC(=O)[C@@H](CCCNC(=N)N)NC(=O)[C@H](CCC(N)=O)NC(=O)[C@@H](CCCCN)NC(=O)[C@H](Cc2c[nH]c3ccccc23)NC(=O)[C@@H](CC(C)C)NC(=O)[C@H](Cc2c[nH]c3ccccc23)NC1=O [SEQ ID NO:8] (cyclo([dK]Q[dR]W[dL]W[dL]W)) ?
Response: 45

----------
System: murine red blood cells
Test: Red blood cell hemolysis
Type: cell-based, mouse
Protocol: Selectivity of cyclic peptides for bacterial over mammalian cells was evaluated by measuring red blood cell hemolytic activities as described in Tosteson, M. T. Holmes, S. J., Razin, M. and Tosteson, D. C. Melittin Lysis of Red Cells, J. Membrane Biol. 87, 35-44(1985). Heparinized murine blood was centrifuged at 1000×g for 10 minutes. The supernatant and the buffy coat were removed. […] Aliquots of the supernatant were diluted 2 times with saline solution and the absorbance was measured at 560 nm.
Where a name gives a salt, the structure may show the parent alone. Non-standard residues stand in square brackets, D forms with d. Residues, ends and D or L forms follow the SMILES beside them.
result_type: RBC Hemolysis (HD50)
Give a plain numeric answer without units written out.

Previously resolved entries follow.
molecule: CC(C)C[C@H]1NC(=O)[C@H](Cc2ccccc2)NC(=O)[C@@H](Cc2c[nH]cn2)NC(=O)[C@H](CCCCN)NC(=O)[C@@H](Cc2c[nH]cn2)NC(=O)[C@H](CCCCN)NC(=O)[C@@H](CC(C)C)NC(=O)[C@H](Cc2c[nH]c3ccccc23)NC1=O [SEQ ID NO:72, [KHKHFLWL]] (cyclo(K[dH]K[dH]F[dL]W[dL]))
RBC Hemolysis (HD50): 200
--
molecule: CC(C)C[C@H]1NC(=O)[C@H](Cc2c[nH]c3ccccc23)NC(=O)[C@@H](CCCCN)NC(=O)[C@H](CCCCN)NC(=O)[C@@H](CCCCN)NC(=O)[C@H](Cc2c[nH]c3ccccc23)NC(=O)[C@@H](CC(C)C)NC(=O)[C@H](Cc2c[nH]c3ccccc23)NC1=O [SEQ ID NO:17] (cyclo([dK]K[dK]W[dL]W[dL]W))
RBC Hemolysis (HD50): 45

Now for another entry.
Request: Form field: reported RBC Hemolysis (HD50) of CC(C)C[C@H]1NC(=O)[C@H](Cc2c[nH]c3ccccc23)NC(=O)[C@@H](CCCCN)NC(=O)[C@H](CO)NC(=O)[C@@H](CCCCN)NC(=O)[C@H](Cc2c[nH]c3ccccc23)NC(=O)[C@@H](CC(C)C)NC(=O)[C@H](Cc2c[nH]c3ccccc23)NC1=O [[KSKWLWLW]-HCl, D-Lys-Ser-D-Lys-Trp-D-Leu-Trp-D-Leu-Trp] (cyclo([dK]S[dK]W[dL]W[dL]W))
Response: 60

----------
tested on: murine red blood cells; experiment: Red blood cell hemolysis; type: cell-based, mouse
Non-standard residues stand in square brackets, D forms with d. Residues, ends and D or L forms follow the SMILES beside them.
Reported RBC Hemolysis (HD50) is given for each of the following molecules.

Worked set:
molecule: CC(C)C[C@H]1NC(=O)[C@H](Cc2c[nH]c3ccccc23)NC(=O)[C@@H](CC(C)C)NC(=O)[C@H](Cc2c[nH]c3ccccc23)NC(=O)[C@@H](CC(=O)O)NC(=O)CNC(=O)[C@@H](CCCNC(=N)N)NC(=O)[C@H](Cc2c[nH]c3ccccc23)NC1=O [SEQ ID NO:7, RGDWLWLW] (cyclo([dR]G[dD]W[dL]W[dL]W))
result_type: RBC Hemolysis (HD50)
result: 100

molecule: CC(C)C[C@@H]1NC(=O)[C@@H](Cc2c[nH]c3ccccc23)NC(=O)[C@H](CCCCN)NC(=O)[C@@H](CCCNC(=N)N)NC(=O)[C@H](CCCCN)NC(=O)[C@@H](Cc2c[nH]c3ccccc23)NC(=O)[C@H](CC(C)C)NC(=O)[C@@H](Cc2c[nH]cn2)NC1=O [SEQ ID NO:101, [KRKWLHLW]] (cyclo(K[dR]K[dW]L[dH]L[dW]))
result_type: RBC Hemolysis (HD50)
result: 100

Request: For murine red blood cells, provide RBC Hemolysis (HD50) of CC(C)C[C@H]1NC(=O)[C@H](Cc2c[nH]c3ccccc23)NC(=O)[C@@H](Cc2ccccc2)NC(=O)[C@H](CCCCN)NC(=O)[C@@H](Cc2ccccc2)NC(=O)[C@H](Cc2c[nH]c3ccccc23)NC(=O)[C@@H](CC(C)C)NC(=O)[C@H](Cc2c[nH]c3ccccc23)NC1=O [SEQ ID NO:40, [KFWLWLWF]] (cyclo(K[dF]W[dL]W[dL]W[dF])) please.
Response: >44

Request: # returns recorded RBC Hemolysis (HD50) (system: murine red blood cells) for CC(C)C[C@@H]1NC(=O)[C@@H](Cc2c[nH]c3ccccc23)NC(=O)[C@H](CCC(N)=O)NC(=O)[C@@H](CCC(N)=O)NC(=O)[C@H](CCCCN)NC(=O)[C@@H](Cc2c[nH]c3ccccc23)NC1=O [SEQ ID NO:124, [KQQWLW]] (cyclo(K[dQ]Q[dW]L[dW]))
Response: >35

----------
test system: murine red blood cells; experiment: Red blood cell hemolysis; type: cell-based, mouse
Non-standard residues stand in square brackets, D forms with d. Residues, ends and D or L forms follow the SMILES beside them.
This listing pairs compounds with measured RBC Hemolysis (HD50).

Below, 3 compounds whose answers are already recorded.
compound: CC(C)C[C@@H]1NC(=O)[C@@H](Cc2c[nH]c3ccccc23)NC(=O)[C@H](CCC(N)=O)NC(=O)[C@@H](Cc2ccccc2)NC(=O)[C@H](CCCCN)NC(=O)[C@@H](Cc2c[nH]c3ccccc23)NC1=O [SEQ ID NO:129, [KFQWLW]] (cyclo(K[dF]Q[dW]L[dW]))
RBC Hemolysis (HD50): >81
//
compound: CC(C)C[C@H]1NC(=O)[C@H](Cc2c[nH]c3ccccc23)NC(=O)[C@@H](CO)NC(=O)[C@H](CCCCN)NC(=O)[C@@H](CO)NC(=O)[C@H](CCCNC(=N)N)NC(=O)[C@@H](CC(C)C)NC(=O)[C@H](Cc2c[nH]c3ccccc23)NC1=O [SEQ ID NO:84, [KSWLWLRS]] (cyclo(K[dS]W[dL]W[dL]R[dS]))
RBC Hemolysis (HD50): >62
//
compound: CC(C)C[C@H]1NC(=O)[C@H](Cc2c[nH]c3ccccc23)NC(=O)[C@@H](Cc2c[nH]c3ccccc23)NC(=O)[C@H](CCCCN)NC(=O)[C@@H](Cc2c[nH]cn2)NC(=O)[C@H](Cc2c[nH]c3ccccc23)NC(=O)[C@@H](CC(C)C)NC(=O)[C@H](Cc2c[nH]c3ccccc23)NC1=O [SEQ ID NO:43, [KWWLWLWH]] (cyclo(K[dW]W[dL]W[dL]W[dH]))
RBC Hemolysis (HD50): >23

Attention now shifts to the item below.
Request: Missing value: RBC Hemolysis (HD50), murine red blood cells, entry CC(C)C[C@@H]1NC(=O)[C@@H](Cc2c[nH]c3ccccc23)NC(=O)[C@H](CCCCN)NC(=O)[C@@H](CO)NC(=O)[C@H](CCC(N)=O)NC(=O)[C@@H](CO)NC(=O)[C@H](CCCCN)NC(=O)[C@@H](Cc2c[nH]c3ccccc23)NC1=O [SEQ ID NO:92, [KSQSKWLW]] (cyclo(K[dS]Q[dS]K[dW]L[dW])) . Fill in?
Response: 195
